Source of measurements: PubChem BioAssay

method: inhibitors of TNFa-induced NFkB p65 translocation, primary screen, imaging, HUVEC, MLSMR starter and 10KST1 sets (AID 438);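 further: compound added about 3h40 before a 20 min TNFalpha stimulation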
measurement setup: HUVEC TNFa-induced p65 nuclear translocation; measured here: nuclei count (cytotoxicity indicator), at 2.08 µM
Below, each entry is listed alongside its reported cell count.
Could you respond with only the numeric value?

These recorded examples may help you get a feel for the data.
compound | cell count
CN(C(=O)C1CCCO1)c1nnc(-c2ccncc2)s1 (stereo not drawn) | 279
Cc1cc(=O)oc(C)c1C(=O)NCC(C)NC(=O)c1c(C)cc(=O)oc1C (stereo not drawn) | 531

Recorded cell count of O=C(NCc1ccc2c(c1)OCO2)c1cccc2c1C(=O)N(C1CCCCC1)C2 , please.
570

Recorded cell count of CC(C)(C)SCCNC(=O)CN1C(=O)c2ccccc2S1(=O)=O , please.
625
